Biological target: rat metabotropic glutamate receptor 5 (mGluR5) (Rattus norvegicus)
Sequence (P31424 21-1171 isoform P31424-2 limits assumed): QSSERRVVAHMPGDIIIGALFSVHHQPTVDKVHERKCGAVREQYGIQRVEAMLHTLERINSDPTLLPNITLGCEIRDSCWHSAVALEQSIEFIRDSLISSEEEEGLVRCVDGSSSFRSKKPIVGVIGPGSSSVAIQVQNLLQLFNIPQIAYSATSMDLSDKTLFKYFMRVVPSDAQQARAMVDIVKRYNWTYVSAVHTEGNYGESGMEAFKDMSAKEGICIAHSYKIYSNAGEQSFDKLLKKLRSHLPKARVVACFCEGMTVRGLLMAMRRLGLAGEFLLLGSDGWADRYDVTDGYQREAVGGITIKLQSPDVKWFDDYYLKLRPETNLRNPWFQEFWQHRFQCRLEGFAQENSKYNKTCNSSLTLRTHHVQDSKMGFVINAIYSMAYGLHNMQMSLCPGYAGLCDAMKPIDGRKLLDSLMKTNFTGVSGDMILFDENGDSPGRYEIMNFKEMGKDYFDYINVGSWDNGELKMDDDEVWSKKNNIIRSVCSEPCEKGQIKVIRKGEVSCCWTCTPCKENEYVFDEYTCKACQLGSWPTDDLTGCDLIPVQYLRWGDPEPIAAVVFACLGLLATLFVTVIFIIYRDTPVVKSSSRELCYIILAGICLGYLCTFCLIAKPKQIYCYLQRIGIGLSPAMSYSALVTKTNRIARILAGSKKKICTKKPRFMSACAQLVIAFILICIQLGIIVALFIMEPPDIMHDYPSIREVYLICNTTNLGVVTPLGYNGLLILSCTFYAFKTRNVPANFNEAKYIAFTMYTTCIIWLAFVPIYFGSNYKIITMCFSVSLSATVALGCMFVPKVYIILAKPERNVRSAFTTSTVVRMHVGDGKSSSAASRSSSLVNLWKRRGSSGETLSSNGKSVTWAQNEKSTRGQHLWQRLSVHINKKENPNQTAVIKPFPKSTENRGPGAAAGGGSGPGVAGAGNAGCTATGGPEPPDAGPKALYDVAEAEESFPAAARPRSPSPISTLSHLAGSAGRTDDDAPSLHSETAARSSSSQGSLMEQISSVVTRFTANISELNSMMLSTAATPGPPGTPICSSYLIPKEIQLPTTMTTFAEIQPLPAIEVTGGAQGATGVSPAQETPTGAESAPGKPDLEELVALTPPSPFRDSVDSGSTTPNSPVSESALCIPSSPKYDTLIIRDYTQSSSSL
Test: Calcium mobilization assay (FLIPR) for negative or positive allosteric activity, HEK 293 cells
Details: positive modulation, increase in EC20 glutamate response
RECORDED_ENDPOINT: EC50 (nM)
Quick note: give the figure in nM, leave out the unit.

// field: EC50; key: Cc1cncc(C(=O)NC23CC4CC(CC(NC(=O)c5cc(-c6ccccc6)ncn5)(C4)C2)C3)n1 [Example 257] ; value = 830

// field: EC50; key: Cc1cncc(C(=O)NC23CC4CC(CC(NC(=O)c5cc(-c6ccc(F)cc6)ncn5)(C4)C2)C3)n1 [Example 256] ; value = 300
